studyTarget: human PDE5 (Homo sapiens)
assayOverview: Inhibition of the type 5 phosphodiesterase (PDE5) activity, modified SPA test with platelet lysate
conditionParameters: PDE5 from human platelet lysate, 0.5 μM cGMP
reportedEndpoint: log10 of IC50 (log10 of the value in nM)
# log10 transformed; quantity=IC50; unit=nM

Worked examples follow.
> print(dat)
                                     smiles  result
1  O=C(N[C@H]1CC[C@H](NC(=O)C2(O)CC2)CC1)c1c[nH]c2c(-c3ccc(F)cc3OCC3CC3)ncnc12    0.30
2  COCCOc1ccc2c(c1-c1ncnc3c(C(=O)NC4CCN(C(=O)COC)CC4)c[nH]c13)OCO2    1.14

Value of log10 of IC50 reported for the compound O=C(NCC1CCN(C(=O)CO)CC1)c1c[nH]c2c(-c3c(OCC4CC4)ccc4c3OCO4)ncnc12 is -0.26

Value of log10 of IC50 reported for the compound O=CN1CC[C@@H](NC(=O)c2c[nH]c3c(-c4c(OCC5CC5)ccc5c4OCO5)ncnc23)C1 is 0.14

Value of log10 of IC50 reported for the compound COc1cc(OCC2CC2)c(-c2ncnc3c(C(=O)NC4CCN(C(=O)CO)CC4)c[nH]c23)cc1F is 0.22

Value of log10 of IC50 reported for the compound CC(=O)N1CCC(NC(=O)c2c[nH]c3c(-c4ccccc4OCC4CC4)ncnc23)CC1 is 0.94

Value of log10 of IC50 reported for the compound C[C@H](O)C(=O)N1CC(NC(=O)c2c[nH]c3c(-c4c(OCC5CC5)ccc5c4OCO5)ncnc23)C1 is -0.12
